Taken from patent US20030103986A1.

target: T1, ZTNF4 (Homo sapiens (Human), UniProt Q9Y275 134-285, limits assumed, radioiodinated with 125I (Iodobeads) in the binding assays; unlabeled ZTNF4 used to determine nonspecific binding); experiment: competitive binding: TACI-Fc against plate-coated TACI-N for 125I-ZTNF4 (20 ng/ml); average of three experiments
T1 construct: also called BAFF
measured_property: IC50 (nM)
Report as a plain number; the unit nM is understood.

**Query** Can you look up the measured IC50 of TACI (d1-29, d120-154)-Fc5 (Fc fusion) AMRSCPEEQYWDPLLGTCMSCKTICNHQSQRTCAAFCRSLSCRKEQGKFYDHLLRDCISCASICGQHPKQCAYFCENKLRSPVNLPPELREPKSSDKTHTCPPCPAPEAEGAPSVFLFPPKPKDTLMISRTPEVTCVVVDVSHEDPEVKFNWYVDGVEVHNAKTKPREEQYNSTYRVVSVLTVLHQDWLNGKEYKCKVSNKALPSSIEKTISKAKGQPREPQVYTLPPSRDELTKNQVSLTCLVKGFYPSDIAVEWESNGQPENNYKTTPPVLDSDGSFFLYSKLTVDKSRWQQGNVFSCSVMHEALHNHYTQKSLSLSPGK for me?
**Result** 2.21
